Target: T1, GHRH receptor (membrane receptors of human anterior pituitary cells) (human, UniProt Q02643 23-423)
T1 construct: whole, on cells; Native receptor in a membrane fraction of purchased normal human pituitaries, not intact cells; also called hGHRH receptor; human pituitary membrane homogenates
T1 sequence (looked up): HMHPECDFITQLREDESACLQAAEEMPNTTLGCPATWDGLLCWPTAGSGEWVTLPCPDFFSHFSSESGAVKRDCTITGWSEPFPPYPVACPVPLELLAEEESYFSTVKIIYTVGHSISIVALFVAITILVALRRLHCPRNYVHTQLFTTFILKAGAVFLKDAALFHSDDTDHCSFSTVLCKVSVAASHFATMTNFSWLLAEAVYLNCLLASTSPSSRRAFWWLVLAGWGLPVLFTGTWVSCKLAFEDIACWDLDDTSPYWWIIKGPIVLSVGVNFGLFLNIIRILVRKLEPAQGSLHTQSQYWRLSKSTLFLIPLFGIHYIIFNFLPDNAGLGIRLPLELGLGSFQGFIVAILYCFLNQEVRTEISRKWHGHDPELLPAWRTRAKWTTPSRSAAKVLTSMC
Assay: competition with 125I-[His1,Nle27]hGHRH(1-32)NH2, human pituitary membranes
Non-standard residues stand in square brackets, D forms with d. No end group written: not given here. *: point of attachment. NMeY = CN[C@@H](Cc1ccc(O)cc1)C(=O)O; Agmatine = N=C(N)NCCCCN*; Nle = CCCC[C@H](N)C(=O)O; Orn = NCCC[C@H](N)C(=O)O; Abu = CC[C@H](N)C(=O)O
Here the recorded Relative affinity (Binding potency) compared to hGHRH(1-29) is given for each entry.
Measurement Kind: Relative affinity (Binding potency) compared to hGHRH(1-29)

binder="[NMeY][dA]DAIFTQSYR[Orn]VL[Abu]QLSAR[Orn]LLQDI[Nle]DR-NHEt (also called MR-420; Peptide 28420) [P-28420 [N-Me-Tyr^1, D-Ala^2, Gln^8, Orn^12, Abu^15, Orn^21, Nle^27, Asp^28]hGHRH(1-29)NH-CH2-CH3]" reported="2.83 hGHRH(1-29)NH2 = 1"
binder="[NMeY][dA]DAIFTQSYR[Orn]VL[Abu]QLSAR[Orn]LLQDI[Nle]DR-NHMe [P-27403 [N-Me-Tyr^1, D-Ala^2, Gln^8, Orn^12, Abu^15, Orn^21, Nle^27, Asp^28]hGHRH(1-29)NH-CH3]" reported="10.3 hGHRH(1-29)NH2 = 1"
binder="[NMeY][dA]DAIFTQSYR[Orn]VL[Abu]QLSAR[Orn]LLQDI[Nle]D[Agmatine] (also called Peptide 20361) [P-20361 [N-Me-Tyr^1, D-Ala^2, Gln^8, Orn^12, Abu^15, Orn^21, Nle^27, Asp^28, Agm^29]hGHRH(1-29)NH2]" reported="6.42 hGHRH(1-29)NH2 = 1"
binder="[NMeY][dA]DAIFTNSYR[Orn]VL[Abu]QLSAR[Orn]LLQDI[Nle]DR-NHEt (also called MR-421; Peptide 28421) [P-28421 [N-Me-Tyr^1, D-Ala^2, Orn^12, Abu^15, Orn^21, Nle^27, Asp^28]hGHRH(1-29)NH-CH2-CH3]" reported="2.5 hGHRH(1-29)NH2 = 1"
binder="[NMeY][dA]DAIFTNSYR[Orn]VL[Abu]QLSAR[Orn]LLQDI[Nle]D[Agmatine] (also called Peptide 20367) [P-20367 [N-Me-Tyr^1, D-Ala^2, Orn^12, Abu^15, Orn^21, Nle^27, Asp^28, Agm^29]hGHRH(1-29)NH2]" reported="7.01 hGHRH(1-29)NH2 = 1"
binder="[NMeY][dA]DAIFTNSYR[Orn]VL[Abu]QLSAR[Orn]LLQDI[Nle]DR-NHMe (also called MR-409; Peptide 27409) [P-27409 [N-Me-Tyr^1, D-Ala^2, Orn^12, Abu^15, Orn^21, Nle^27, Asp^28]hGHRH(1-29)NH-CH3]" reported="7.57 hGHRH(1-29)NH2 = 1"
binder="[NMeY][dA]DAIFTTSYR[Orn]VL[Abu]QLSAR[Orn]LLQDI[Nle]DR-NHMe (also called MR-410; Peptide 27410) [P-27410 [N-Me-Tyr^1, D-Ala^2, Thr^8, Orn^12, Abu^15, Orn^21, Nle^27, Asp^28]hGHRH(1-29)NH-CH3]" reported="5.98 hGHRH(1-29)NH2 = 1"
